Provide the recorded pIC50 for the entries that follow.
Test system: DSH1;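 also: growth inhibition of human DSH1 cells, measured with a cell viability readout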
method.description: cells
Type: functional, cell-based, Homo sapiens
applied.conditions: Homo sapiens, DSH1
Description: SANGER: Inhibition of human DSH1 cell growth in a cell viability assay.
pIC50: −log10 of the molar value.

Entry under review: N#Cc1c(O)c2c(-c3ccc(-c4ccccc4O)cc3)csc2[nH]c1=O . Reported pIC50?
< 5.99

Please give the result for CS(=O)(=O)c1ccc(C(=O)Nc2ccc(Cl)c(-c3ccccn3)c2)c(Cl)c1 [VISMODEGIB] too.
< 5.00

Next up: COc1cccc2c1C(=O)c1c(O)c3c(c(O)c1C2=O)C[C@@](O)(C(=O)CO)C[C@@H]3O[C@H]1C[C@H](N)[C@H](O)[C@H](C)O1 [DOXORUBICIN]
6.43

Check C#Cc1cccc(Nc2ncnc3cc(OCCOC)c(OCCOC)cc23)c1 [ERLOTINIB] too.
< 5.70

Now this one: CCC/C=C/C=C/C(=O)O[C@H]1/C(=C/C(=O)OC)C[C@H]2C[C@H]([C@@H](C)O)OC(=O)C[C@H](O)C[C@@H]3C[C@H](OC(C)=O)C(C)(C)[C@](O)(C[C@@H]4C/C(=C/C(=O)OC)C[C@H](/C=C/C(C)(C)[C@]1(O)O2)O4)O3 [BRYOSTATIN 1]
< 8.10

// input: 3 molecules below; output: pIC50 for each
1. COc1cc2ncn(-c3cc(OCc4ccccc4S(C)(=O)=O)c(C#N)s3)c2cc1OC [GSK-319347A]
2. CC[C@H](CO)Nc1nc(NCc2ccccc2)c2ncn(C(C)C)c2n1 [SELICICLIB]
3. Cc1ccc(-c2c(C(=O)CCl)n(CCCO)c3ncnc(N)c23)cc1

1. < 5.30
2. < 4.80
3. < 5.40

----------
Tested on: MOLT-4
method.description: cells
Format: functional, cell-based, Homo sapiens
applied.conditions: Homo sapiens, MOLT-4
Description: SANGER: Inhibition of human MOLT-4 cell growth in a cell viability assay.
quantity: IC50 (µM)
Numbers only, in µM.

Item N[C@@H](CSC(c1ccccc1)(c1ccccc1)c1ccccc1)C(=O)O has what recorded IC50?
4.29

Proceed to the following item.
What measured IC50 goes with CC(C)CCN1c2nc(Nc3cc(F)c(O)c(F)c3)ncc2N(C)C(=O)C1C (stereo not drawn) ?
3.39

----------
Answer each item with its documented IC50.
Tested on: ECC12
method.description: cells
Type: functional, cell-based
applied.conditions: Homo sapiens
Description: SANGER: Inhibition of human ECC12 cell growth in a cell viability assay.

Can you share its IC50? I mean this compound: COc1cc(N2CCN(C)CC2)ccc1Nc1ncc2c(n1)N(C)c1ccccc1C(=O)N2C
> 8 µM

Next:
Return reported IC50; argument: CC[C@H](CO)Nc1nc(NCc2ccccc2)c2ncn(C(C)C)c2n1 [SELICICLIB]
> 16 µM

----------
Test system: T-24
method.description: cells
Format: functional, cell-based, Homo sapiens
applied.conditions: t-24
Description: SANGER: Inhibition of human T-24 cell growth in a cell viability assay.
quantity: pIC50
Numbers only, as −log10 of the molar value.

# returns recorded pIC50 (system: T-24) for BLEOMYCIN;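 also: growth inhibition of T-24 cells, read out with a cell viability assay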
6.14

----------
Test system: BB65-RCC;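 also: growth inhibition of the cell line, measured with a cell viability assay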
method.description: cells
Format: functional, cell-based, Homo sapiens
applied.conditions: Homo sapiens, BB65-RCC
Description: SANGER: Inhibition of human BB65-RCC cell growth in a cell viability assay.
pIC50: −log10 of the molar value.
quantity: pIC50

Some entries whose results are on file:
Would you mind telling me what pIC50 value was observed for Nc1ccn([C@@H]2O[C@H](CO)[C@@H](O)C2(F)F)c(=O)n1 [GEMCITABINE] ?
> 8.40

Would you kindly repeat that for CC(C)c1ccccc1Cc1cc(C(=O)Nc2ccc(S(=O)(=O)c3ccccc3C(C)(C)C)cc2)c(O)c(O)c1O ?
6.87

Please do the same for C=C(c1ccc(C(=O)O)cc1)c1cc2c(cc1C)C(C)(C)CCC2(C)C [BEXAROTENE] as well.
< 5.10

Please answer likewise for COc1cc(N2CCN(C)CC2)ccc1Nc1ncc2c(n1)N(C)c1ccccc1C(=O)N2C
< 5.10

Now consider CC(C)CCN1c2nc(Nc3cc(F)c(O)c(F)c3)ncc2N(C)C(=O)C1C (stereo not drawn) and answer again.
5.46

Same for CCN(CC)CCNC(=O)c1c(C)[nH]c(/C=C2\C(=O)Nc3ccc(F)cc32)c1C [SUNITINIB]
< 5.10

Go through the items and report each one's pIC50.
1. Nc1cccc2c1CN(C1CCC(=O)NC1=O)C2=O (stereo not drawn) [LENALIDOMIDE]
2. CO[C@H]1C[C@@H]2CC[C@@H](C)[C@@](O)(O2)C(=O)C(=O)N2CCCC[C@H]2C(=O)O[C@H]([C@H](C)C[C@@H]2CC[C@@H](OC(=O)C(C)(CO)CO)[C@H](OC)C2)CC(=O)[C@H](C)/C=C(\C)[C@@H](O)[C@@H](OC)C(=O)[C@H](C)C[C@H](C)/C=C/C=C/C=C/1C [TEMSIROLIMUS]
3. Oc1ccc2ccccc2c1SSc1c(O)ccc2ccccc12
4. CS(=O)(=O)c1ccc(C(=O)Nc2ccc(Cl)c(-c3ccccn3)c2)c(Cl)c1 [VISMODEGIB]
5. COc1cc2ncn(-c3cc(OCc4ccccc4S(C)(=O)=O)c(C#N)s3)c2cc1OC [GSK-319347A]

1: < 5.30; 2: 8.15; 3: < 4.49; 4: < 5.00; 5: < 5.30

For each entry beneath this line, provide reported pIC50.
1. Cc1cc([N+](=O)[O-])ccc1NS(=O)(=O)c1cc(Cl)ccc1Cl
2. COc1cc2c(Nc3ccc(NC(=O)c4ccccc4)cc3)ncnc2cc1OCCCN1CCOCC1

1: 5.20; 2: < 5.40

----------
Test system: NCI-H69
method.description: cells
Assay type: functional, cell-based, Homo sapiens
applied.conditions: Homo sapiens, NCI-H69
Description: SANGER: Inhibition of human NCI-H69 cell growth in a cell viability assay.
pIC50: −log10 of the molar value.
Exercise: for every item that follows, state its recorded pIC50.

Known pIC50 results, listed for orientation:
Requested read-out: pIC50. Entry: CN(C)C(=N)NC(=N)N
2.07

Next up: C=C(c1ccc(C(=O)O)cc1)c1cc2c(cc1C)C(C)(C)CCC2(C)C
< 5.10

Next molecule: Nc1ccn([C@@H]2O[C@H](CO)[C@@H](O)C2(F)F)c(=O)n1
6.34

Look up pIC50 for the entries below, preserving their order.
1. Oc1ccc2ccccc2c1SSc1c(O)ccc2ccccc12
2. COc1cc2ncn(-c3cc(OCc4ccccc4S(C)(=O)=O)c(C#N)s3)c2cc1OC [GSK-319347A]
3. Cc1cn(-c2cc(NC(=O)c3ccc(C)c(Nc4nccc(-c5cccnc5)n4)c3)cc(C(F)(F)F)c2)cn1
4. N#Cc1c(O)c2c(-c3ccc(-c4ccccc4O)cc3)csc2[nH]c1=O
5. COc1cc2ncn(-c3cc(OCc4ccccc4C(F)(F)F)c(C(N)=O)s3)c2cc1OC [GW843682X]

1: < 4.49; 2: < 5.30; 3: < 5.70; 4: < 5.99; 5: 6.74

----------
Would you mind telling me the reported IC50 of each entry?
System: ST486
method.description: SANGER: Inhibition of human ST486 cell growth in a cell viability assay.
Format: functional, cell-based
applied.conditions: Homo sapiens, ST486

Requested field: IC50. Item: COc1cc(-c2nn([C@H]3CC[C@H](N4CCN(C(C)=O)CC4)CC3)c3ncnc(N)c23)ccc1NC(=O)c1cc2ccccc2n1C
> 5120 nM

Same question for N#Cc1c(O)c2c(-c3ccc(-c4ccccc4O)cc3)csc2[nH]c1=O please.
135 nM

# iterate: Nc1ccn([C@@H]2O[C@H](CO)[C@@H](O)C2(F)F)c(=O)n1
9.41 nM

Now the molecule C=C(c1ccc(C(=O)O)cc1)c1cc2c(cc1C)C(C)(C)CCC2(C)C
> 8000 nM

---
Request the reported IC50 associated with CC[C@H](CO)Nc1nc(NCc2ccccc2)c2ncn(C(C)C)c2n1
10400 nM

----------
System: ES4;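 also: growth inhibition of human ES4 cells, read out by a cell viability assay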
method.description: cells
Assay type: functional, cell-based, Homo sapiens
applied.conditions: Homo sapiens, ES4
Description: SANGER: Inhibition of human ES4 cell growth in a cell viability assay.
quantity: IC50

What value of IC50 has been recorded for this entry: CC[C@H](CO)Nc1nc(NCc2ccccc2)c2ncn(C(C)C)c2n1
> 16000 nM

Try the compound CCN(CC)CCCCNc1ncc2cc(-c3cc(OC)cc(OC)c3)c(NC(=O)NC(C)(C)C)nc2n1
> 2000 nM

Can you check CO[C@H]1C[C@@H]2CC[C@@H](C)[C@@](O)(O2)C(=O)C(=O)N2CCCC[C@H]2C(=O)O[C@H]([C@H](C)C[C@@H]2CC[C@@H](OC(=O)C(C)(CO)CO)[C@H](OC)C2)CC(=O)[C@H](C)/C=C(\C)[C@@H](O)[C@@H](OC)C(=O)[C@H](C)C[C@H](C)/C=C/C=C/C=C/1C next?
37.8 nM

Can you check CC(=O)O[C@H]1C(=O)[C@@]2(C)[C@H]([C@H](OC(=O)c3ccccc3)[C@]3(O)C[C@H](OC(=O)[C@H](O)[C@@H](NC(=O)c4ccccc4)c4ccccc4)C(C)=C1C3(C)C)[C@]1(OC(C)=O)CO[C@@H]1C[C@@H]2O next?
4.49 nM

// repeat for Cn1cnc2c(F)c(Nc3ccc(Br)cc3Cl)c(C(=O)NOCCO)cc21 and report
> 4000 nM

List IC50 for every entry below, keeping the order given.
1. N[C@@H](CSC(c1ccccc1)(c1ccccc1)c1ccccc1)C(=O)O
2. C#Cc1cccc(Nc2ncnc3cc(OCCOC)c(OCCOC)cc23)c1
3. COc1cc2c(Nc3ccc(NC(=O)c4ccccc4)cc3)ncnc2cc1OCCCN1CCOCC1
4. OCCCNc1cc(-c2ccnc(Nc3cccc(Cl)c3)n2)ccn1

> 5120 nM
> 2000 nM
> 4000 nM
35.1 nM

Measured values drawn from ChEMBL document CHEMBL1201861 for this set.
